- Test system: VchCAST RNA-guided transposition machinery (E. coli BL21(DE3) host, lacZ target)
- test description: relative integration efficiency (T-RL orientation) vs wild-type transposon end (log2 (normalized fold change)); transposon end mutated: right end (5 bp flank + 75 bp right end); higher = more efficient transposition
parameter measured: relative integration efficiency (log2)
// no unit string in output, number only

ACATTTGTTGATACAACCATAAAATGATAATTACACCCATAACGTGATAATTATCACACCCATAAATTGATATTGCCTCTGATCATAGTCAGACCAACATTGCTACGACCCGTATTCGCACCGACAC : 0.496
ACATTTGTTGATACAACCATATTATGATAATTACACCCATAAATTGATAATTATCACACCCATAAATTGATATTGCCTCTGATCATAGTCAGACCAACATTGCTACGACCCGTATTCGCACCGACAC : -0.297
ACATTTGTTGATACACCCATAAATTGATAATTACAACCATATATTGATATCTCTCACACCCATAAATTGATATTGCCTCTGATCATAGTCAGACCAACATTGCTACGACCCGTATTCGCACCGACAC : -0.676

Q: Request body: readout relative integration efficiency (log2), system VchCAST RNA-guided transposition machinery (E. coli BL21(DE3) host, lacZ target), query ACATTTGTTGATACAACCATATATTGATATCTCCAACCATAAGTTGATATTTTTCACACCCATAAATTGATATTGCCTCTGATCATAGTCAGACCAACATTGCTACGACCCGTATTCGCACCGACAC . Return the value.
Result: -0.335

Q: Return relative integration efficiency (log2) measured with VchCAST RNA-guided transposition machinery (E. coli BL21(DE3) host, lacZ target) given this sequence: ACAAATGTTGATACAACCATAAAATGATAATTACACCCATAAATTGATAATTATCACACCCATAAATTGATATTGCCTCTGATCATAGTCAGACCAACATTGCTACGACCCGTATTCGCACCGACAC
Result: 0.215
